target: SARS2 protease (Severe acute respiratory syndrome coronavirus 2); construct: SARS2 protease was added to a final concentration of 30 nM; experiment: SARS-CoV-2 protease inhibition assay (SARS2 FRET protease assay); assay type: biochemical; details: IC50 (μM), SARS2 protease 30 nM, peptide substrate 1.3 μM, 120 minutes at 37° C., compounds 20 μM to 0.075 nM
Note to self: IC50 under 0.007 µM means 1.0, ties and anything higher get 0.0.

Ask: Could you please tell me whether IC50 recorded for CCCC[C@H](NC(=O)CC(O)(c1ccccc1)C(C)(C)c1cccc(Cl)c1)C(=O)N[C@H](C=O)C[C@@H]1CCNC1=O (stereo partly drawn) [Compound A260] is less than 0.007 µM?
Result: 1.0

Ask: One more compound: CC(C)C[C@H](NC(=O)OC(c1ccccc1)C(F)(F)c1cccc(F)c1)C(=O)N[C@H](C=O)C[C@@H]1CCNC1=O (stereo partly drawn) [Compound A2]
Result: 1.0

Ask: Would you kindly repeat that for CC(C)C[C@H](NC(=O)O[C@@H](c1ccccc1)C(F)(F)c1cccc(Cl)c1)C(=O)N[C@@H](C[C@@H]1CCNC1=O)C(=O)C(N)=O [Compound A282] ?
Result: 1.0

Ask: Please give the result for O=C(N[C@@H](CC1CCCCC1)C(=O)N[C@@H](C[C@@H]1CCCNC1=O)C(=O)C(=O)NC1CC1)OC(c1ccccc1)C(F)(F)c1cccc(Cl)c1 (stereo partly drawn) [Compound A129] too.
Result: 0.0

Ask: Here is the next compound: CCCC[C@H](NC(=O)OC(c1ccccc1)C(F)(F)c1cccc(Cl)c1)C(=O)N[C@@H](C[C@@H]1CCNC1=O)C(=O)C(N)=O (stereo partly drawn) [Compound A224]
Result: 1.0

Ask: What do you have for CC(C)C[C@H](NC(=O)OC(c1cccc(Cl)c1)C1(c2cccc(Cl)c2)CCCCC1)C(=O)N[C@@H](C[C@@H]1CCNC1=O)C(=O)C(=O)NC1CC1 (stereo partly drawn) [Compound A65] ?
Result: 0.0

Okay, next one:
Ask: Given the entry CCNC(=O)C(=O)[C@H](C[C@@H]1CCNC1=O)NC(=O)[C@H](CC1(CC)CCC1)NC(=O)O[C@@H](c1ccccc1)C(F)(F)c1cccc(Cl)c1 [Compound A323] , would its reported IC50 be below 0.007 µM?
Result: 0.0

----------
target: SARS2 protease (Severe acute respiratory syndrome coronavirus 2, UniProt P0DTD1); construct: SARS2 protease was added to a final concentration of 30 nM; assay: SARS-CoV-2 protease inhibition assay (SARS2 FRET protease assay); format: biochemical; settings: IC50 (μM), SARS2 protease 30 nM, peptide substrate 1.3 μM, 120 minutes at 37° C., compounds 20 μM to 0.075 nM
measured property: IC50 (µM)
Response body: numeric value in µM, unit text excluded.

Sample answers from the record:
Ask: Param item = CCCC[C@H](NC(=O)OC(c1ccccc1)C(F)(F)c1cccc(Cl)c1)C(=O)N[C@@H](C[C@@H]1CCNC1=O)C(=O)c1nc2ccccc2o1 (stereo partly drawn) ; retrieve measured IC50.
Result: 0.418

Ask: Cool, now CCNC(=O)C(=O)[C@H](C[C@@H]1CCNC1=O)NC(=O)[C@H](CC1(CC)CCC1)NC(=O)O[C@H](c1ccccc1)C(F)(F)c1cccc(Cl)c1
Result: 1.72

***
Ask: IC50 lookup needed for CC(C)C[C@H](NC(=O)OC(c1ccccc1)C1(c2cccc(Cl)c2)CCCCC1)C(=O)N[C@@H](C[C@@H]1CCNC1=O)C(=O)C(=O)NC1CC1 (stereo partly drawn) , thanks.
Result: 0.52
